Reported pIC50 values follow for various compounds
Molecular target: Carboxylic ester hydrolase (Equus caballus)
pIC50: −log10 of the molar value.
MEASURED_PROPERTY: pIC50

[[record]]
smiles_entry = "Cc1cc(=O)oc2cc(Oc3ccc(Nc4c5c(nc6ccccc46)CCCCC5)cc3)ccc12"
obs_value = "< 4.00"

[[record]]
smiles_entry = "Cc1cc(=O)oc2cc(Oc3ccc(Nc4c5c(nc6ccc(Cl)cc46)CCCC5)cc3)ccc12"
obs_value = "< 4.00"

[[record]]
smiles_entry = "Cc1cc(=O)oc2cc(Oc3ccc(Nc4c5c(nc6ccc(Cl)cc46)CCC5)cc3)ccc12"
obs_value = "< 4.00"

[[record]]
smiles_entry = "O=c1ccc2ccc(Oc3ccc(Nc4c5c(nc6ccccc46)CCC5)cc3)cc2o1"
obs_value = "< 4.00"

[[record]]
smiles_entry = "O=c1ccc2ccc(Oc3ccc(Nc4c5c(nc6cc(Cl)ccc46)CCCC5)cc3)cc2o1"
obs_value = "< 4.00"

[[record]]
smiles_entry = "O=c1ccc2ccc(Oc3ccc(Nc4c5c(nc6ccccc46)CCCCC5)cc3)cc2o1"
obs_value = "< 4.00"

[[record]]
smiles_entry = "Cc1cc(=O)oc2cc(Oc3ccc(Nc4c5c(nc6ccc(Cl)cc46)CCCCC5)cc3)ccc12"
obs_value = "< 4.00"

[[record]]
smiles_entry = "O=c1ccc2ccc(Oc3ccc(Nc4c5c(nc6ccccc46)CCCC5)cc3)cc2o1"
obs_value = 4.54

[[record]]
smiles_entry = "Cc1cc(=O)oc2cc(Oc3ccc(Nc4c5c(nc6ccccc46)CCCC5)cc3)ccc12"
obs_value = 4.41


###

Acetylcholinesterase (Electrophorus electricus): recorded pIC50 for assorted compounds
Sequence (O42275 whole entry): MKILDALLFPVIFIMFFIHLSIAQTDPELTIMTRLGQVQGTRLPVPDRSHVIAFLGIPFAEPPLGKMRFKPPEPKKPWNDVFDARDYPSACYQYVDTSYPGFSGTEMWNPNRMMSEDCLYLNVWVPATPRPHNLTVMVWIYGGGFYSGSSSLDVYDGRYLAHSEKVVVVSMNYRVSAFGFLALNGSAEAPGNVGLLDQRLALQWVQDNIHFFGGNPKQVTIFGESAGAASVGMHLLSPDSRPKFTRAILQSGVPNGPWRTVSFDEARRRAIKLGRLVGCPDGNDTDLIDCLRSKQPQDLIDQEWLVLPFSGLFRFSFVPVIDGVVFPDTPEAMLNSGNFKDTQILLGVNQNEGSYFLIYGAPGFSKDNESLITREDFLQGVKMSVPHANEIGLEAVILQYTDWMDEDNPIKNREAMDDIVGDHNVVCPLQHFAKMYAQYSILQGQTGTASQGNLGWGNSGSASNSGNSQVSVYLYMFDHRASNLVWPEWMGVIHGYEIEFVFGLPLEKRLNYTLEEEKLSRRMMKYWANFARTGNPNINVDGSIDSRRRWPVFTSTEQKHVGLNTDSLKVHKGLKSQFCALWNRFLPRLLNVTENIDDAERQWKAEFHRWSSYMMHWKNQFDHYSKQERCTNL
pIC50: −log10 of the molar value.
MEASURED_PROPERTY: pIC50

[[record]]
smiles_entry = "O=c1ccc2ccc(Oc3ccc(Nc4c5c(nc6ccccc46)CCCCC5)cc3)cc2o1"
measured_target = "Acetylcholinesterase (Electrophorus electricus)"
value_operator = "<"
obs_value = 4.00

[[record]]
smiles_entry = "O=c1ccc2ccc(Oc3ccc(Nc4c5c(nc6cc(Cl)ccc46)CCCC5)cc3)cc2o1"
measured_target = "Acetylcholinesterase (Electrophorus electricus)"
value_operator = "<"
obs_value = 4.00

[[record]]
smiles_entry = "O=c1ccc2ccc(Oc3ccc(Nc4c5c(nc6cc(Cl)ccc46)CCCCC5)cc3)cc2o1"
measured_target = "Acetylcholinesterase (Electrophorus electricus)"
value_operator = "<"
obs_value = 4.00

[[record]]
smiles_entry = "O=c1ccc2ccc(Oc3ccc(Nc4c5c(nc6ccc(Cl)cc46)CCCC5)cc3)cc2o1"
measured_target = "Acetylcholinesterase (Electrophorus electricus)"
value_operator = "<"
obs_value = 4.00

[[record]]
smiles_entry = "Cc1cc(=O)oc2cc(Oc3ccc(Nc4c5c(nc6ccc(Cl)cc46)CCCCC5)cc3)ccc12"
measured_target = "Acetylcholinesterase (Electrophorus electricus)"
value_operator = "="
obs_value = 4.27

[[record]]
smiles_entry = "Cc1cc(=O)oc2cc(Oc3ccc(Nc4c5c(nc6ccc(Cl)cc46)CCCC5)cc3)ccc12"
measured_target = "Acetylcholinesterase (Electrophorus electricus)"
value_operator = "="
obs_value = 4.51

[[record]]
smiles_entry = "Cc1cc(=O)oc2cc(Oc3ccc(Nc4c5c(nc6cc(Cl)ccc46)CCCC5)cc3)ccc12"
measured_target = "Acetylcholinesterase (Electrophorus electricus)"
value_operator = "="
obs_value = 4.74

[[record]]
smiles_entry = "O=c1ccc2ccc(Oc3ccc(Nc4c5c(nc6ccccc46)CCCC5)cc3)cc2o1"
measured_target = "Acetylcholinesterase (Electrophorus electricus)"
value_operator = "="
obs_value = 4.72

[[record]]
smiles_entry = "Cc1cc(=O)oc2cc(Oc3ccc(Nc4c5c(nc6ccccc46)CCCC5)cc3)ccc12"
measured_target = "Acetylcholinesterase (Electrophorus electricus)"
value_operator = "="
obs_value = 4.66

[[record]]
smiles_entry = "Cc1cc(=O)oc2cc(Oc3ccc(Nc4c5c(nc6ccccc46)CCC5)cc3)ccc12"
measured_target = "Acetylcholinesterase (Electrophorus electricus)"
value_operator = "="
obs_value = 4.34

[[record]]
smiles_entry = "Cc1cc(=O)oc2cc(Oc3ccc(Nc4c5c(nc6cc(Cl)ccc46)CCCCC5)cc3)ccc12"
measured_target = "Acetylcholinesterase (Electrophorus electricus)"
value_operator = "="
obs_value = 4.50

[[record]]
smiles_entry = "Cc1cc(=O)oc2cc(Oc3ccc(Nc4c5c(nc6cc(Cl)ccc46)CCC5)cc3)ccc12"
measured_target = "Acetylcholinesterase (Electrophorus electricus)"
value_operator = "="
obs_value = 4.79

[[record]]
smiles_entry = "O=c1ccc2ccc(Oc3ccc(Nc4c5c(nc6cc(Cl)ccc46)CCC5)cc3)cc2o1"
measured_target = "Acetylcholinesterase (Electrophorus electricus)"
value_operator = "<"
obs_value = 4.00

[[record]]
smiles_entry = "Cc1cc(=O)oc2cc(Oc3ccc(Nc4c5c(nc6ccc(Cl)cc46)CCC5)cc3)ccc12"
measured_target = "Acetylcholinesterase (Electrophorus electricus)"
value_operator = "="
obs_value = 4.44

[[record]]
smiles_entry = "O=c1ccc2ccc(Oc3ccc(Nc4c5c(nc6ccccc46)CCC5)cc3)cc2o1"
measured_target = "Acetylcholinesterase (Electrophorus electricus)"
value_operator = "="
obs_value = 4.08

[[record]]
smiles_entry = "Cc1cc(=O)oc2cc(Oc3ccc(Nc4c5c(nc6ccccc46)CCCCC5)cc3)ccc12"
measured_target = "Acetylcholinesterase (Electrophorus electricus)"
value_operator = "="
obs_value = 4.19

[[record]]
smiles_entry = "O=c1ccc2ccc(Oc3ccc(Nc4c5c(nc6ccc(Cl)cc46)CCC5)cc3)cc2o1"
measured_target = "Acetylcholinesterase (Electrophorus electricus)"
value_operator = "="
obs_value = 4.41


###

Assay: AChE and BChE Inhibition Assay
Settings: pH 8
MEASURED_PROPERTY: IC50 (µM)

[[record]]
smiles_entry = "Cc1cc(=O)oc2cc(Oc3ccc(Nc4c5c(nc6cc(Cl)ccc46)CCC5)cc3)ccc12"
measured_property = "IC50"
obs_value = 7.99


###

pIC50 values for the molecules below.
Target: Carboxylic ester hydrolase (Equus caballus, UniProt Q9N1N9)
Sequence (Q9N1N9 whole entry): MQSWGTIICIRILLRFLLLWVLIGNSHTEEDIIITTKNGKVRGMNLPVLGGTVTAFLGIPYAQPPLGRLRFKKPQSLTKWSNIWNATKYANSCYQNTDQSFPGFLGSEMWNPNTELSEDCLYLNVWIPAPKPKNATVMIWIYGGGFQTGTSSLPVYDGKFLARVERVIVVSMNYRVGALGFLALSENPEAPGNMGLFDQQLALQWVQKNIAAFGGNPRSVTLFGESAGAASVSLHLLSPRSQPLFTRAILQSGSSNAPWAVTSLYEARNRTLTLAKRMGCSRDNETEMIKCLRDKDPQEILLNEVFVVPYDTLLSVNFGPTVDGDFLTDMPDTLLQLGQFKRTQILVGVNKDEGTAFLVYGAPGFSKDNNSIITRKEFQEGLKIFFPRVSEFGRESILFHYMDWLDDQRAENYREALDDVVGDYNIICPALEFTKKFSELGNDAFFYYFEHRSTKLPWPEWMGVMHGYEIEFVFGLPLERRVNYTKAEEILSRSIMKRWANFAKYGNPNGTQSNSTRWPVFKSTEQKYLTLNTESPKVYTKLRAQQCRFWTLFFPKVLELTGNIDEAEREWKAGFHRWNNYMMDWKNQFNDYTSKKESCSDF
pIC50: −log10 of the molar value.
MEASURED_PROPERTY: pIC50

[[record]]
smiles_entry = "O=c1ccc2ccc(Oc3ccc(Nc4c5c(nc6ccc(Cl)cc46)CCC5)cc3)cc2o1"
measured_property = "pIC50"
obs_value = "< 4.00"

[[record]]
smiles_entry = "O=c1ccc2ccc(Oc3ccc(Nc4c5c(nc6cc(Cl)ccc46)CCC5)cc3)cc2o1"
measured_property = "pIC50"
obs_value = 4.93

[[record]]
smiles_entry = "Cc1cc(=O)oc2cc(Oc3ccc(Nc4c5c(nc6cc(Cl)ccc46)CCCC5)cc3)ccc12"
measured_property = "pIC50"
obs_value = 4.51

[[record]]
smiles_entry = "Cc1cc(=O)oc2cc(Oc3ccc(Nc4c5c(nc6cc(Cl)ccc46)CCCCC5)cc3)ccc12"
measured_property = "pIC50"
obs_value = "< 4.00"

[[record]]
smiles_entry = "O=c1ccc2ccc(Oc3ccc(Nc4c5c(nc6ccc(Cl)cc46)CCCC5)cc3)cc2o1"
measured_property = "pIC50"
obs_value = "< 4.00"

[[record]]
smiles_entry = "Cc1cc(=O)oc2cc(Oc3ccc(Nc4c5c(nc6ccccc46)CCC5)cc3)ccc12"
measured_property = "pIC50"
obs_value = "< 4.00"

[[record]]
smiles_entry = "O=c1ccc2ccc(Oc3ccc(Nc4c5c(nc6cc(Cl)ccc46)CCCCC5)cc3)cc2o1"
measured_property = "pIC50"
obs_value = "< 4.00"

[[record]]
smiles_entry = "Cc1cc(=O)oc2cc(Oc3ccc(Nc4c5c(nc6cc(Cl)ccc46)CCC5)cc3)ccc12"
measured_property = "pIC50"
obs_value = "< 4.00"

